- TEST TARGET: Lewy body α-Synuclein (human, UniProt P37840 1-140)
- METHOD DESCRIPTION: IHC, human amygdala; OD of Lewy bodies / OD of tissue
READOUT: LB Discrimination Index
Simply state the number, no unit and no words.

As a guide, the following entries are already answered.
| BINDER | LB Discrimination Index |
| --- | --- |
| 9092 (antibody, IgG1, V domains shown) VH: QVQLQQSGPELVKPGASVRISCKASGYTFTTFYLHWVKQRPGQGLEWIGWIYPVNVKIKYSERFKGKATLTADKSSSTAYMQLGSLTSEDSAVYFCVRGGRGLDYWGQGTTLTVSS VL: NIMMTQSPSSLAVSAGEKVTMSCKSSQSVLYSSNQKNYLAWYQQKPGQSPKMLIYWASFRESGVPDRFTGSGSGTDFTLTISSVQAEDLAVYYCHQYLSLFTFGSGTKLEIK | 1.9 |
| 9021 (antibody, IgG1, V domains shown) VH: EVMMVESGGGLVKPGGSLKLSCAASGFTFSNYAMSWVRQTPEKRLEWVATISTGGGYTYYPDSMKGRFTISRDNAKNTLYLQMSSLRSEDTAMYYCARRGTARGYFDVWGAGTTVTVSS VL: QIVLTQSPAIMSASPGEKVTMTCSASSSVSYMYWYQQKPESSPRLLIYDTSNLASGVPVRFSGSGSGTSYFLTISRMEAEDAATYYCQQWKTYPPTFGGGTKLEIK | 1.81 |
| 9110 (antibody, IgG1, V domains shown) VH: EVHLVESGGGLVQPKGSLKLSCAASGFTFNTYAMHWVRQAPGKGLEWVARIRNKSNNYATYYADSVKDRFTISRDDSQSMLFLQMDNLKTEDTAIYYCVRGGLSPFDYWGQGTTLTVSS VL: QIVLTQSPAIMSASPGEKVTMTCSASSSVTYMHWYQQKSGTSPKRWIYDTSKLASGVPARFSGSGSGTSYSLTISSMEAEDAATYYCQQWSSNPPTFGGGTKLEIR | 1.73 |

Could you now look at the following binder, please?
Query: Consider the binder shown here: 9060 (antibody, IgG1, V domains shown) VH: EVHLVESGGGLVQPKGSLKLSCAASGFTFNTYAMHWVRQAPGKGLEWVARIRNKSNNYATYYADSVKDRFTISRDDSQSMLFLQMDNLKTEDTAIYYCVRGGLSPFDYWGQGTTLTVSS VL: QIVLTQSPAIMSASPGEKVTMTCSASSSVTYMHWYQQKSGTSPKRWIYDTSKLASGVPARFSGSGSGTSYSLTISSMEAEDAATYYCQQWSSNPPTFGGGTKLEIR What is its recorded LB Discrimination Index?
Response: 1.92
